- study.target: human APJ receptor (Homo sapiens)
- Construct: expressed in transfected cells; host or cells: HEK293
- Sequence (P35414 1-380): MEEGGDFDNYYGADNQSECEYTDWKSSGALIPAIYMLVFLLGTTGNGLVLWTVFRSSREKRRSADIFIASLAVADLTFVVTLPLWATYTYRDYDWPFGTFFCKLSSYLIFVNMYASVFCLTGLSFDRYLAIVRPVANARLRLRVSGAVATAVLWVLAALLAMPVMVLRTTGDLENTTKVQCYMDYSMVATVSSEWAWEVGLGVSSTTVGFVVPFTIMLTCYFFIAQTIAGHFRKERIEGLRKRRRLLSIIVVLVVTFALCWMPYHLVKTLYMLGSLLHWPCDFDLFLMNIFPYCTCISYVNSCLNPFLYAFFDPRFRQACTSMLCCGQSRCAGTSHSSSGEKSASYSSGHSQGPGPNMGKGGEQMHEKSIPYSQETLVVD
- assay.comment: Intracellular cAMP Accumulation Assay (APJ hcAMP, HTRF)
- Format: cell-based
- test.settings: human APJ, cAMP accumulation; potency range class; read-out: hAPJ cAMP EC50 Potency range
- Description: Intracellular cAMP Accumulation Assay HEK293 cells stably expressing human APJ receptor were used to assess the activity of compounds. Cultured cells were detached and resuspended in the cAMP Homogeneous Time-Resolved Fluorescence (HTRF) assay buffer (Cisbio cat; #62AM4PEJ). […] The fluorescence emission ratio was measured using fluorometer. […] The biological activity of the exemplified compounds of this invention determined by the assay described above is shown at the end of each example.
pEC50: −log10 of the molar value.
endpoint.name: pEC50

For the molecule CCn1ccc(-c2nc(=O)c(C(=O)N3CCC(c4ncc(F)cc4F)C3)c(O)n2[C@H](c2cc(F)cc(F)c2)C(C)C)n1 (single isomer, unassigned) , give its measured pEC50 value.
8.00 to 11.00

For the molecule COc1cccc(OC)c1-n1c(-c2cncc(Cl)c2)nc(=O)c(C(=O)N2CCC(c3ccc(F)cc3F)C2)c1O (single isomer, unassigned) , give its measured pEC50 value.
8.00 to 11.00

For the molecule CCc1cccc(CC)c1-n1c(-c2ccn(C3CC3)n2)nc(=O)c(C(=O)N2CCC(c3ncc(F)cc3F)C2)c1O (single isomer, unassigned) , give its measured pEC50 value.
8.00 to 11.00
